- tested on: KAT2A (Homo sapiens, UniProt Q92830)
- Sequence (Q92830 whole entry): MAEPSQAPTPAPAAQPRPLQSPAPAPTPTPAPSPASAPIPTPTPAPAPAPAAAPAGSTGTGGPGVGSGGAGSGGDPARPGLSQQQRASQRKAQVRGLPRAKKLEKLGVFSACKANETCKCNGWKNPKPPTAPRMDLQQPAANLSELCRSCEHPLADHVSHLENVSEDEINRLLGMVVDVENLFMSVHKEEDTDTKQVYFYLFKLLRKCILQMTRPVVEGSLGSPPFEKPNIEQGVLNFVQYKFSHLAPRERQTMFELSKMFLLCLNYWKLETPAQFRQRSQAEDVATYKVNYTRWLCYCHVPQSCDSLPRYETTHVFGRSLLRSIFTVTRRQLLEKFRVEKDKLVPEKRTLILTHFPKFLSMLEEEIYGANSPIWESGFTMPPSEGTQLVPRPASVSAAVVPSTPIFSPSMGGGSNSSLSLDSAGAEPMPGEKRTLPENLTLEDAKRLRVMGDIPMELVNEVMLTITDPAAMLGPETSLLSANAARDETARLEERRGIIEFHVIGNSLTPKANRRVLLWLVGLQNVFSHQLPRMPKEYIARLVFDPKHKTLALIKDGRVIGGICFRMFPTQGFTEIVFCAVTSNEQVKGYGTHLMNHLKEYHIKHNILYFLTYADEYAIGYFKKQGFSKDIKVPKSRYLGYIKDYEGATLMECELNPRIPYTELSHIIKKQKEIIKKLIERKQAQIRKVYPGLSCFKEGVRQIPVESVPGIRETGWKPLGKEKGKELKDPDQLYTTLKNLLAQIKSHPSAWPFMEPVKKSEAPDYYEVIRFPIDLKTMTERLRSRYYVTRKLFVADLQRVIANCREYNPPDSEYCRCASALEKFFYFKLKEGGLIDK
- protocol text: KAT2A degradation, Western Blot (Jess), MOLM-13 cells
- Format: cell-based
- Design: degrader, Western blot
- applied conditions: MOLM-13 cells, KAT2A, 24 h, Western Blot, vs DMSO; read-out: KAT2A MOLM-13 DC50
outcome measure: DC50

Guide cases for DC50, answers given:
molecule	outcome measure	result
CN1C[C@H](Nc2cnn(C)c(=O)c2Br)C[C@H](c2ccc(C(=O)N3CCN(CCOCCC(=O)Nc4cccc5c4C(=O)N(C4CCC(=O)NC4=O)C5=O)CC3)cc2)C1 (stereo partly shown) [Compound 7]	DC50	1 to 30 nM
CN1C[C@H](Nc2cnn(C)c(=O)c2C2CC2)C[C@H](c2ccc(CN3CCC(c4ccc5c(c4)CN(C4CCC(=O)NC4=O)C5=O)CC3)cc2)C1 (stereo partly shown) [Compound 129]	DC50	1 to 30 nM
CN1C[C@H](Nc2cnn(C)c(=O)c2Br)C[C@H](c2ccc(CN3CC4(C3)CN(c3ccc5c(c3)CN(C3CCC(=O)NC3=O)C5=O)C4)cc2)C1 (stereo partly shown) [Compound 37]	DC50	< 1 nM
CN1C[C@H](Nc2cnn(C)c(=O)c2Br)C[C@H](c2ccc(CN3CCC4(CCN(c5ccc(C6CCC(=O)NC6=O)cc5)C4)C3)cc2)C1 (stereo partly shown) [Compound 89]	DC50	< 1 nM
CN1C[C@H](Nc2cnn(C)c(=O)c2Br)C[C@H](c2ccc(COc3ccc(C4CCC(=O)NC4=O)cc3)cc2)C1 (stereo partly shown) [Compound 151]	DC50	1 to 30 nM
CN1C[C@H](Nc2cnn(C)c(=O)c2Br)C[C@H](c2ccc(C(=O)N3CC(Oc4ccc(C5CCC(=O)NC5=O)cc4)C3)cc2)C1 (stereo partly shown) [Compound 183]	DC50	1 to 30 nM

Now look at this one.
Ask: Dear colleague, please send me the reported DC50 for CN1C[C@H](Nc2cnn(C)c(=O)c2Cl)C[C@H](c2ccc(CN3CC(c4ccc5c(c4)CN(C4CCC(=O)NC4=O)C5=O)C3)cc2)C1 (stereo partly shown) [Compound 141] when you can.
Result: < 1 nM

Each recorded value in this set is attributed to patent US20260306640A1.
